Target: HDAC6 enzyme (Homo sapiens)
Construct: prepared by transducing full length HDAC6 gene into Sf-9 insect cells; GST; purchased SignalChem; host or cells: Sf-9 insect cells
Sequence (Q9UBN7 1-1215): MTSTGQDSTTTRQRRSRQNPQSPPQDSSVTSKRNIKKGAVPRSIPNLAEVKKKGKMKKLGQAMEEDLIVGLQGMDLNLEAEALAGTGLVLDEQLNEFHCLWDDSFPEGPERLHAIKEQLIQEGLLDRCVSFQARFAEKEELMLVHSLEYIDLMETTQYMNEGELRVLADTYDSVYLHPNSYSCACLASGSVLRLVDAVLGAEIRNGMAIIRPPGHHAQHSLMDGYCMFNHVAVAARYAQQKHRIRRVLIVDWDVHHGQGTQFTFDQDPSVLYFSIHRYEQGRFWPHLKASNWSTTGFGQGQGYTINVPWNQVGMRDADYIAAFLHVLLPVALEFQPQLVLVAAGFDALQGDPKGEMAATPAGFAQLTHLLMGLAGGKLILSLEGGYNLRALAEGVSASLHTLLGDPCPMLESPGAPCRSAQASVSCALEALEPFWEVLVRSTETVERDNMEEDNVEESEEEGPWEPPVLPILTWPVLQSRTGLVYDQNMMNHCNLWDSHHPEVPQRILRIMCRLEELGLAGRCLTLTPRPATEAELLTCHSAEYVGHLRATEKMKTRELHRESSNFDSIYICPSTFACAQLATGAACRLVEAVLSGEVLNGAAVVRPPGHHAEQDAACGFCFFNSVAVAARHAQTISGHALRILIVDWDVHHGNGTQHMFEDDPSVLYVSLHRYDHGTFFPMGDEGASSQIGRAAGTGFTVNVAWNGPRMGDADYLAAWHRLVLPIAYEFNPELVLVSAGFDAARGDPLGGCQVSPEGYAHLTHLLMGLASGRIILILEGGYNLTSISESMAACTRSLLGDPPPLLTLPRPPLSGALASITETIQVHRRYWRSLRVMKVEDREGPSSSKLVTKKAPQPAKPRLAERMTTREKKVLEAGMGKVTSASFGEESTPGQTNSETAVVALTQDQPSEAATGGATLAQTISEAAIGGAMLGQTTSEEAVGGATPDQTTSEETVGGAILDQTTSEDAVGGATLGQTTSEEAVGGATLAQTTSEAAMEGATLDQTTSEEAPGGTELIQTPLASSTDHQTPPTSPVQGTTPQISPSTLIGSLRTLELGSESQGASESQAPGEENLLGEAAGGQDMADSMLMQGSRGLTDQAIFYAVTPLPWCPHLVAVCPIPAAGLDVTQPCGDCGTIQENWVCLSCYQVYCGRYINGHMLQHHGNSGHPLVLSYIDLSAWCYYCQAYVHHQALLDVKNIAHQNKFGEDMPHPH
Assay: HDAC6 enzyme inhibitory assay (HDAC-Glo I/II Assay kit, luminescence)
Type: biochemical
Conditions: 10 μM test compound; wells without enzyme = 100% inhibition; read-out: HDAC6 inhibitory rate (%) (10 μM)
Readout kind: inhibition at 10 µM (%)
Express your answer in %, writing the number without its unit.

A selection of reference data follows.
> print(dat)
                                   compound         readout.kind  unit.spec  measurement
1  Fc1cc(-c2nnc(C(F)F)o2)cc(-c2nccn2Cc2cncnc2)c1 [Example 25a]  inhibition at 10 µM          %           98
2  CN(Cc1cc(O)ccc1F)N1Cc2ccc(-c3nnc(C(F)F)o3)cc2C1=O [Example 49c]  inhibition at 10 µM          %          100
3  FC(F)c1nnc(-c2ccnc(-n3ncc4c3C(c3ccccc3)CCC4)c2)o1 (centres unmarked) [Example 77a]  inhibition at 10 µM          %           99
4  Fc1cc(-c2nnc(C(F)F)o2)cc(-c2nccn2Cc2ccccc2)c1 [Example 4a]  inhibition at 10 µM          %           99

Query block: Consider the compound shown here: CC(C)(C)OC(=O)N1CCCC1COc1cccnc1-c1cc(F)cc(-c2nnc(C(F)F)o2)c1 (centres unmarked) [Example 17a] What is its recorded inhibition at 10 µM?
Result block: 96

Query block: Quick one: Cc1nc(Cn2ccnc2-c2cc(F)cc(-c3nnc(C(F)F)o3)c2)sc1C [Example 65a]
Result block: 100

Query block: Quick one: CN1C(=O)c2cc(-c3nnc(C(F)F)o3)ccc2OC1(C)C1CCCCC1 (centres unmarked) [Example 14b]
Result block: 98

Query block: Quick one: CC1(c2ccc(F)cc2)Oc2ccc(-c3nnc(C(F)F)o3)cc2C(=O)N1CC(F)F (centres unmarked) [Example 56b]
Result block: 100
